Below: a set of entries, each annotated with reported change in vivo at 30 mg/kg.
System: Acute hypoxia in mice; survival of the brain
Experiment Summary: Acute hypoxia in mice (hypobaric); brain survival time to final respiratory gasp
Format: in vivo, Male CD1 mice (Charles River)
Condition Label: Mus musculus, ip, 30 mg/kg I.P., 30 minutes before hypoxia, mice; read-out: Percentage increase in the survival time
Where a name gives a salt, the structure may show the parent alone.
Observation Type: change in vivo at 30 mg/kg

Compound	Tested Target	Value Measured
Cc1cccc(N2CCN(C(=O)CC3C(=O)Oc4ccc(Cl)cc43)CC2)c1 (stereo not shown) [Example 26, hydrochloride]	Acute hypoxia in mice; survival of the brain	53%
O=C(CC1(c2ccccc2)C(=O)Oc2ccc(Cl)cc21)N1CCN(Cc2ccccc2)CC1 (stereo not shown)	Acute hypoxia in mice; survival of the brain	40%
COc1cccc(C2CCCN(C(=O)CC3(c4ccccc4)C(=O)Oc4ccc(Cl)cc43)C2)c1 (stereo not shown)	Acute hypoxia in mice; survival of the brain	36%
O=C(O)CN1CCN(C(=O)CC2(c3ccccc3)C(=O)Oc3ccc(Cl)cc32)CC1 (stereo not shown) [Example 29, hydrochloride]	Acute hypoxia in mice; survival of the brain	32%
O=C(CC1(c2ccccc2)C(=O)Oc2ccccc21)N1CCN(Cc2ccc3c(c2)OCO3)CC1 (stereo not shown) [Example 22, hydrochloride]	Acute hypoxia in mice; survival of the brain	42%
O=C(CC1(c2ccccc2)C(=O)Oc2ccc(Cl)cc21)N1CCN(c2cccc(C(F)(F)F)c2)CC1 (stereo not shown) [Example 18, hydrochloride]	Acute hypoxia in mice; survival of the brain	53%
O=C(CC1(c2ccccc2)C(=O)Oc2ccc(F)cc21)N1CCN(Cc2ccc3c(c2)OCO3)CC1 (stereo not shown) [Example 20, hydrochloride]	Acute hypoxia in mice; survival of the brain	104%
O=C(CC1(c2ccccc2)C(=O)Oc2ccc(Cl)cc21)N1CCN(CCO)CC1 (stereo not shown) [Example 15, hydrochloride]	Acute hypoxia in mice; survival of the brain	41%
Cc1ncc(CSSCc2cnc(C)c(O)c2CO)c(CO)c1O	Acute hypoxia in mice; survival of the brain	13%
O=C(CC1(c2ccccc2)C(=O)Oc2ccc(Cl)cc21)N1CCN(c2cc(C(F)(F)F)ccn2)CC1 (stereo not shown)	Acute hypoxia in mice; survival of the brain	59%
CCN(CC)CCN(C)C(=O)CC1(c2ccccc2)C(=O)Oc2ccc(Cl)cc21 (stereo not shown) [Example 12, hydrochloride]	Acute hypoxia in mice; survival of the brain	84%
O=C(CC1(c2ccccc2)C(=O)Oc2ccc(Cl)cc21)N1CCN(Cc2ccc3c(c2)OCO3)CC1 (stereo not shown)	Acute hypoxia in mice; survival of the brain	64%
CCN1CCCC1CN(C)C(=O)CC1(c2ccccc2)C(=O)Oc2ccc(Cl)cc21 (stereo not shown)	Acute hypoxia in mice; survival of the brain	26%

====

Below: a set of entries, each annotated with reported % inhibition of the effects of hypoxia, ATP.
System: brain energy-rich compounds (ATP, ADP, AMP)
Experiment Summary: Acute hypoxia in rats; protection of tissue energy-rich compounds in brain (ATP, energy content)
Format: in vivo, Male Fischer 344 rats (Charles River)
Condition Label: 100 mg/kg I.P., 3% oxygen for 2 minutes
Description: The compounds of the present invention were tested in respect of their capacity to prolong the survival of cerebral tissue during acute hypoxia in mice, or to maintain the level of tissue energy-rich compounds in rats subjected to a fall in the oxygen supply [Pharmacology of Cerebral Ischemia, p. 334-339 (1968) Elsevier Science Publishers B.V., J. Krieglstein ed.]. […] Forsch. Drug. Res. (1986), 36 II No. 9, p. […] The tissue energy content (EC) is calculated according to ATKINSON's formula: [formula]
Structures can show the parent of a compound that is named as a salt.
Observation Type: % inhibition of the effects of hypoxia, ATP

Compound	Value Measured
O=C(O)CC1(c2ccccc2)C(=O)Oc2ccc(Cl)cc21 (centres unmarked)	54%
Cc1cccc(CN2CCN(C(=O)CC3C(=O)Oc4ccccc43)CC2)c1 (centres unmarked) [Example 25, hydrochloride]	50.5%
O=C(CC1(c2ccccc2)C(=O)Oc2ccc(Cl)cc21)N1CCN(Cc2ccc3c(c2)OCO3)CC1 (centres unmarked)	77.5%
Cc1ncc(CSSCc2cnc(C)c(O)c2CO)c(CO)c1O	23.3%
O=C(CC1(c2ccccc2)C(=O)Oc2ccc(F)cc21)N1CCN(Cc2ccc3c(c2)OCO3)CC1 (centres unmarked) [Example 20, hydrochloride]	70.2%

====

Below: a set of entries, each annotated with reported change in vivo at 300 mg/kg.
Tested on: Acute hypoxia in mice; survival of the brain
Experiment Summary: Acute hypoxia in mice (hypobaric); brain survival time to final respiratory gasp
Type: in vivo, Male CD1 mice (Charles River)
Condition Label: Mus musculus, ip, 300 mg/kg I.P., 30 minutes before hypoxia, mice; read-out: Percentage increase in the survival time
Counter-ions that a name gives are not always drawn.
Observation Type: change in vivo at 300 mg/kg (%)

Molecule	Value Measured
Cc1cccc(N2CCN(C(=O)CC3C(=O)Oc4ccc(Cl)cc43)CC2)c1 (stereo not shown) [Example 26, hydrochloride]	190
O=C(CC1(c2ccccc2)C(=O)Oc2ccc(O)cc21)OCc1ccccc1 (stereo not shown)	156
O=C(CC1(c2ccccc2)C(=O)Oc2ccc(F)cc21)N1CCN(Cc2ccc3c(c2)OCO3)CC1 (stereo not shown) [Example 20, hydrochloride]	128
O=C(CC1(c2ccccc2)C(=O)Oc2ccc(Cl)cc21)N1CCN(c2cccc(C(F)(F)F)c2)CC1 (stereo not shown) [Example 18, hydrochloride]	103

Origin of values: patent US4885299A
